property label: IC50

The value of IC50 recorded for `C=CC(=O)N1CCN(c2nc(OC[C@@H]3CCCN3C)nc3c(F)c(-c4nc(N)cc(C)c4C(F)(F)F)c(Cl)cc23)[C@@H](C)C1` when tested on KRAS(WT) (Homo sapiens) reads 291 nM

The value of IC50 recorded for `C=CC(=O)N1CCN2C(=O)c3cc(F)c(-c4ccc(F)c5sc(N)c(C#N)c45)c(Cl)c3OCC[C@H]2C1` when tested on KRAS(WT) (Homo sapiens) reads 343 nM

* * *

target system: KRAS(G12C/Y96D) (Homo sapiens, UniProt P01116, G12C/Y96D)
test name: biochemical
assay setup: 10 nM KRAS(G12C/Y96D), 5 nM SOScat, 15 min preincubation; read-out: Nucleotide exchange IC50
property label: pIC50
Scale for pIC50: -log10 of concentration given in mol/L; no unit attached.

pIC50 in this record for `C=CC(=O)N1CCN2C(=O)c3cc(F)c(-c4ccc(F)c5sc(N)c(C#N)c45)c(Cl)c3OCC[C@H]2C1` : 8.55

pIC50 in this record for `C=CC(=O)N1CCN(c2nc(OC[C@@H]3CCCN3C)nc3c(F)c(-c4nc(N)cc(C)c4C(F)(F)F)c(Cl)cc23)[C@@H](C)C1` : 6.64

* * *

target system: KRAS(G12C/Y96D) (Homo sapiens, UniProt P01116, G12C/Y96D)
test name: biochemical
Format: binding
assay setup: 20 nM KRAS(G12C/Y96D), 1 M urea, 120 min at room temperature; read-out: Chemical stability IC50
property label: IC50 (nM)
Numbers only here, please. The scale is nM.

IC50 in this record for C=CC(=O)N1CCN2C(=O)c3cc(F)c(-c4ccc(F)c5sc(N)c(C#N)c45)c(Cl)c3OCC[C@H]2C1 [LY3537982, olomorasib] : 1.6

IC50 in this record for C=CC(=O)N1CCN(c2nc(OC[C@@H]3CCCN3C)nc3c(F)c(-c4nc(N)cc(C)c4C(F)(F)F)c(Cl)cc23)[C@@H](C)C1 [GDC-6036, divarasib] : 106
